Data origin, for the record: a melting point compilation (Tetko et al.; mined from patent text by program, amines drawn as free bases though some values may be those of a salt)

A collection of molecules and their measured melting point

- molecule: "COc1ccc2c(n1)c(CCNC(=O)c1ccco1)c1n2CCCO1"
  melting point: "139 to 140 °C"
- molecule: "CCOC(=O)C=CNC(=O)Nc1ccc(Cl)c(C(=O)OCC)c1"
  melting point: "116 to 117 °C"
- molecule: "Cc1ccc(C(=O)NCCO)cc1-n1c(C)cc(OCc2ccccc2CNC(=O)Nc2cc(C(C)(C)C)nn2-c2ccc(O)c(Cl)c2)c(Cl)c1=O"
  melting point: "195 to 196 °C"
- molecule: "Cc1cc(C)n2nc(S(=O)(=O)Cl)nc2c1"
  melting point: "125 to 126 °C"
- molecule: "CCOC(=O)c1scc2c1CN(C)C(=O)c1cncn1-2"
  melting point: "208 °C"
- molecule: "COc1cc2c(c3c1OC(C)(C)C3)C(c1cccc(-c3ccc(NC=O)cc3)c1)=NC(C)(C)C2"
  melting point: "129 to 133 °C"
- molecule: "O=C(NC1CCN(CCC2CCOc3ccccc32)CC1)c1ccncc1 (stereo unspecified)"
  melting point: "122 to 123 °C"
- molecule: "Nc1cc(Cl)c(N2CCC(N3CCOCC3)CC2)c(Cl)c1"
  melting point: "144 to 146 °C"
- molecule: "Cc1nc2c(N)nc3ccc(OCc4ccccc4)cc3c2n1CCCCNC(=O)N1CCOCC1"
  melting point: "178 to 180 °C"
- molecule: "N#CC(=NOCF)C(N)=O"
  melting point: "124 to 125 °C"
- molecule: "CS(=O)CC(=O)c1cccn1Cc1ccccc1 (stereo unspecified)"
  melting point: "95 to 97 °C"
- molecule: "CCCCCNC(=O)C(C)Cc1ccc2c(c1)c(Cc1ccc(C(=O)NS(=O)(=O)c3ccccc3C)cc1OC)cn2C (stereo unspecified)"
  melting point: "110 to 113 °C"
- molecule: "COc1ccc(/C=C/c2nc3c(c(=O)n(C)c(=O)n3C)n2C)c(C)c1C"
  melting point: "> 275 °C"
- molecule: "CC(=O)N(C)c1ccc(C(=O)N2CCN(CCc3ccc(Br)cc3)CC2)cc1"
  melting point: "161 to 162 °C"
- molecule: "CCCCCCCCCCCCn1nnnc1CCC(=O)Nc1c(OC)cc(OC)cc1OC"
  melting point: "57 to 61 °C"
- molecule: "CC(C)N(Cc1ccc(C(F)(F)F)cc1)C(=O)C(Cl)Cl"
  melting point: "92 to 93 °C"
- molecule: "Cc1cc2c(OCc3ccc(C#N)cc3)cccc2o1"
  melting point: "84 to 85 °C"
- molecule: "O=C1CC(OCc2ccccc2)C2COC1O2 (stereo unspecified)"
  melting point: "118 to 119 °C"
- molecule: "CON=Cc1nc2c(N)nc3cc(Br)ccc3c2s1"
  melting point: "262 to 264 °C"
- molecule: "CCOC(=O)n1c(SC(F)(F)C(F)F)nc(-c2ccccc2)c1-c1ccccc1"
  melting point: "126 to 127 °C"
- molecule: "CCCCCCCC(=O)NNC(=O)N1Cc2ccccc2Oc2ccc(C(F)(F)F)cc21"
  melting point: "97 to 100 °C"
- molecule: "COC(=O)c1cc(N)ccc1Oc1ccccc1"
  melting point: "154 to 156 °C"
- molecule: "C[Si](C)(C)N1Cc2ccccc2P1(=O)c1ccccc1 (stereo unspecified)"
  melting point: "90 to 94 °C"
- molecule: "CS(=O)(=O)c1ccc(-c2cnn(CC(F)(F)F)c(=O)c2NCC2CC2)cc1"
  melting point: "145 to 146 °C"
- molecule: "O=c1[nH]nc2n1-c1ccc(Cl)nc1C(c1ccccc1)=NC2"
  melting point: "222 to 224 °C"
- molecule: "O=c1[nH]c2ccccc2n1CCCN1CCN(c2n[nH]c3ccccc23)CC1"
  melting point: "178 to 180 °C"
- molecule: "CC1(C)COC(=O)[C@H]1NC(=O)[C@@H](CC(=O)OCc1ccccc1)n1ccc(-c2ccc(-c3ccncc3)cc2)c1"
  melting point: "175 to 177 °C"
- molecule: "Cn1nc(-c2ccccc2)nc1-c1ccccn1"
  melting point: "106 to 108 °C"
- molecule: "COc1nc(OC)c(C(C)C)c(C(=O)c2cc(C)cc(Br)c2)n1"
  melting point: "122 to 123 °C"
- molecule: "N[C@@H](C/C(=C\\C1CC1)C(=O)O)C(=O)O"
  melting point: "204 °C"
- molecule: "O=[N+]([O-])c1ccc(C(Cl)=NNc2ccccc2)c(Cl)c1"
  melting point: "124 to 126 °C"
- molecule: "C#CCNc1ccc([N+](=O)[O-])cc1C"
  melting point: "121 to 123 °C"
- molecule: "Cc1c(CN2CCOCC2)ccc2c1-c1[nH]nc(-c3ccsc3)c1C2"
  melting point: "272 to 274 °C"
- molecule: "CC(C)(C)OC(=O)[C@H]1CC[C@@H](c2ccccc2)N1C(=O)CNC(=O)Nc1cccc(CO)c1 (racemic)"
  melting point: "168 °C"
- molecule: "COc1ccc(C=CC(=O)N2CCN(C(=O)C=Cc3ccc(OC)c(C(F)F)c3)CC2)cc1C(F)F"
  melting point: "259 to 261 °C"
- molecule: "CCn1ccc(C(=O)c2sc(NC(=O)c3ccncc3)nc2-c2ccco2)cc1=O"
  melting point: "277 to 281 °C"
- molecule: "CCCCCCCCCCCCN=C1SC(=CC(=O)O)C(=O)N1CCCCCCCCCCCC"
  melting point: "71 to 72 °C"
- molecule: "CCCC1CCC2C3CCc4cc(O)ccc4C3CCC12C (stereo unspecified)"
  melting point: "130 to 131 °C"
- molecule: "Clc1ccc(Oc2ccc(Cl)nn2)cc1"
  melting point: "119 °C"
- molecule: "C[C@@H](n1cnc2cc(C(F)(F)F)ccc2c1=O)[C@](O)(Cn1cncn1)c1ccc(F)cc1F"
  melting point: "142 to 143 °C"
- molecule: "Cn1nc(-c2cnc3[nH]cc(C(=O)NC4CCOCC4)c3n2)c2ccc(Cl)cc21"
  melting point: "355 to 358 °C"
